Data origin, for the record: the DeepSol protein solubility set

Assay: soluble on expression in E. coli; label from the status in PepcDB or PDB records
Measured Endpoint: soluble on expression in E. coli

INSERT INTO results (residue_codes, measured_endpoint, result) VALUES
  ('PQRSQRESRHLFIREAKKLCQKEFKRWFILAADVNPLMKYFKDRELPIPTLYLMGDRDYMFIQPVKEMVAAHKLSILREIPNCGHVCNVERPEDFNQHSIEFIKQQSIVA', 'soluble on expression in E. coli', 'not soluble'),
  ('MVKSLQLAHQLKDKRILLIGGGEVGLTRLYKLMPTGCKLTLVSPDLHKSIIPKFGKFIQNKDQPDYREDAKRFINPNWDPTKNEIYEYIRSDFKDEYLDLENENDAWYIIMTCIPDHPESARIYHLCKERFGKQQLVNVADKPDLCDFYFGANLEIGDRLQILISTNGLSPRFGALVRDEIRNLFTQMGDLALEDAVVKLGELRRGIRLLAPDDKDVKYRMDWARRCTDLFGIQHCHNIDVKRLLDLFKVMFQEQNCSLQFPPRERLLSEYCSS', 'soluble on expression in E. coli', 'soluble'),
  ('MGSSHHHHHHSSGRENLYFQGHMSCTTDKLIQKYDALVRKTTEHKFAKELCAGTLKDRSLYIYLSQDLQFFETSLRLICKTTSLAPTTHALITLAKKIGFFSNDENSYFHDCLELLAPSLTKEERDNFDNKAIPGVDAYINFLDELRKDASITWPSLVTSLWVAEELYWRWARDTPRAPGLHWKYQKWIDLHDGEHFQTWCEFLKAEVDKFPVEEVESIFVKVSQFEFEFFESCYNA', 'soluble on expression in E. coli', 'soluble'),
  ('MDEIEKNNGEIIIYRTEDGRTQLEVRLENENVWLSQQQMSELFQTSRTNIVEHIKHIFEEGELEENSTCQIFRQVRIEGTRKVERSIPFYNLDMIISLGYRVKSRVATHFRRWATERLKEYLIKGFAMDDQRLKEIGGGGYWYELLNRIRDIRSSEKVLYRQVLDLYATSVDYDPKADESIRFFKIVQNKLHYAAHGHTAAEVIFERADAEKPFMGLATFPGEQPRKEDVLIAKNYLNEKELKILNNLVSGYFDFAEIQAIKRSPMYMSDYIHHLDLILSTTGEQVLQNAGTISHEQAKQKALGEYRKYHVKTLSPVEEAYFDSIKKLTAETKKKKKK', 'soluble on expression in E. coli', 'not soluble'),
  ('MAHHHHHHMQRQVIRRLGNRSAFPLVAAVARSSQIRGAVRGDSGSRARVIPSFMCSLRAYSGGHHEEPSSRSGQYLLDKSDVLTRVLEVVKNFEKVDASKVTPESHFVKDLGLNSLDVVEVVFAIEQEFILDIPDHDAEKIQSIPDAVEYIAQNPMAK', 'soluble on expression in E. coli', 'soluble'),
  ('MGSDKIHHHHHHMGFRNVIITQHSKLSYSNNAMIVQNKDGINQIPLVDMDILLISTTQAVITSALVSKLAESGIKVIFTDNKNEPVTETVNYYPNNRSLDTYLQQYEWNDHVKEILWTKIVRSKIINQIKVLKNYQIDCQDLKIELDKLEINDMTNREAVVARKYFEKLFGNKYSRKDFTPMNAALNYGYSILLSAVNKEIVSAGYVTYLGIHHQSQENMFNFGSDLMESFRPVVDYWLADKNFLEFTPDIKYGLVDLLNLEIKYNKKQMLLKNAITKYVRDVIEYLNQETVEFDMEVEFTNEVPNNAINDNI', 'soluble on expression in E. coli', 'not soluble');

// recorded soluble on expression in E. coli for `AIAANQWERFVWLALDAPDTIVERAPLVIQVAWLEDTQLRLWEPAAREPLKRGDDAALRTYLRDAAECPWDPATDPSLVREFLLSRAVDCAFRDELAEHAGCVVDEELDTDFIAETMALSEELVRADDKKLPLETQDLDPASFDLLRAELALPAASAREVLRAGAHWAITRWPPREQWLPPCSRADAPATTALAATGGVPSEAQATPEPMCTETTVSDATCALPSGVYAQLQRIGRQLHNEELLYTQHLLNAALERAQTMTANPRTEARLGRVGH` : soluble

// recorded soluble on expression in E. coli for `MGSDKIHHHHHHMKETSRKSGASAAKGKVIITCAVTGAIHTPTMSPYLPITPDQIASEAIAAAQAGAAILHLHARDPETGKPDQTPEAFARFLPRVKQGTNAAINITTGGSPYMKVEERVRPAAQFKPEVASLNMGSINFGLYHLADKYETFKFDWEKPHLEATRDLVFRNSFKDIEYILATCYDNGTRFEFECYDIAHLYNLSHFADRGLVKPPFFVQSVFGLLGGIGTHPEDVAHMKRTADRLFGDQFRWSVLGAGASQLRIAAQSAALGGNIRVGLEDSLWAGKGKLAKSNAEQVVLARKIIEGLGMEVATPDEAREILSLKGGDKVAF` : not soluble

// recorded soluble on expression in E. coli for `MGSDKIHHHHHHMRILLSVSRFEDELIEILDRLDETYEIFADNDCFEILKDRIPRIRPFERDDFDLLYLNWRDLPSEKREEKILSTIDENRTLLFLKAIKNYREKLVVTTLEDLKLTFSEIERAGDVSLQTRRYLLLKGLAHFLKVHSEVLESLSDLFFIKDWKAIVLERLQEGIKAPVSLLPVSIPPELVEDIGLASHLIRFLPQKACVLVKNGKIVYASSTGDLPEIEGGVFALKGVFRGEKKFDFILAEDFEGDVEGLRIKDLLHQEEGLVLLGASGYLREPVPTNDFTEVLSMHPVFDSCAVTKEGKLVLHVVELNRSDVINALEKIDLSGTEVAFNFPISDEEKAELKQKGVKKVSWIDSRRIWRRC` : not soluble

// recorded soluble on expression in E. coli for `ETVLADRFERLVELVTMMGDQGELPIAMALANVVPCSQWDELARVLVTLFDSRHLLYQLLWNMFSKEVELADSMQTLFRGNSLASKIMTFCFKVYGATYLQKLLDPLLRIVITSSDWQHVSFEVDPTRLEPSESLEENQRNLLQMTEKFFHAIISSSSEFPPQLRSVCHCLYQVVSQRFPQNSIGAVGSAMFLRFINPAIVSPYEAGILDKKPPPIIERGLKLMSKILQSIANHVLFTKEEHMRPFNDFVKSNFDAARRFFLDIASDCPTSDAVNHSLSFISDGNVLALHRLLWNNQEKIGQYLSSNRDHKAVGRRPFDKMATLLAYLGPPEH` : soluble

// recorded soluble on expression in E. coli for `MVYLLDLSGVYCEPVEPRLLRLLAEESGEPVFYLSEAFYALLPRLKAEGAQALEALFPGASRLYPKAFRPRGLAFPEPFHLVSDLPPPEGVLAYHAPDKLEALALALEALGLAPGEAVYWDDNPLWVERARGLGVRAELFLP` : soluble

// recorded soluble on expression in E. coli for `MIIGVLAIQGDVEEHEEAIKKAGYEAKKVKRVEDLEGIDALIIPGGESTAIGKLMKKYGLLEKIKNSNLPILGTCAGMVLLSKGTGINQILLELMDITVKRNAYGRQVDSFEKEIEFKDLGKVYGVFIRAPVVDKILSDDVEVIARDGDKIVGVKQGKYMALSFHPELSEDGYKVYKYFVENCVKK` : soluble
